FYI, the data here is from patent US20250170267A1.

Target: human liver Cathepsin B (Homo sapiens)
Construct: human liver Cathepsin B (manufactured by Sigma-Aldrich Co. LLC, Cat No. C8571 25 μg/vial); purchased Sigma-Aldrich Co. LLC C8571; host or cells: human liver
Assay: Metabolism test using human liver Cathepsin B
Assay type: in vitro ADME
Conditions: 37° C., 24 hours, released drug, LC-MS/MS
Numbered stars: 1 amine (or outer) side, 2 acyl side, 3 side chain; on linkers, the order of the positions; unused ones are H or OH. Square brackets hold non-standard residues; d marks the D form. Peptide text beside a SMILES is read from it. * marks the point of attachment. Exatecan = CC[C@@]1(O)C(=O)OCc2c1cc1n(c2=O)Cc2c-1nc1cc(F)c(C)c3c1c2[C@@H](N*)CC3; Dolaproine = CO[C@@H]([C@@H]1CCCN1)[C@@H](C)C(=O)O; Hexanoyl(6-maleimido) = O=C1C=CC(=O)N1CCCCCC(=O)*; Propanoyl(3-maleimido) = O=C1C=CC(=O)N1CCC(=O)*; Dil = CC[C@H](C)[C@H](NC)[C@@H](CC(=O)O)OC; PABC = O=C(OCc1ccc(N[*:1])cc1)[*:2]; NHCH2OCH2CO = O=C(COCN[*:1])[*:2]; X1 = C[C@@H](N*)[C@@H](O)c1ccccc1; hSer(lactone) = O=C1OCC[C@@H]1N*; Cit = NC(=O)NCCC[C@H](N)C(=O)O; PEG4 = NCCOCCOCCOCCOCCC(=O)O; NMeV = CN[C@H](C(=O)O)C(C)C
ENDPOINT: Release rate (%) of drug from ADC
Note: a bare number is incomplete; add the unit.

## Input Quote Release rate (%) of drug from ADC with test system human liver Cathepsin B (Homo sapiens) for CC[C@@]1(O)C(=O)OCc2c1cc1n(c2=O)Cc2c-1nc1cc(F)c(C)c3c1c2[C@@H](NC(=O)COCNC(=O)CNC(=O)[C@H](Cc1ccccc1)NC(=O)CNC(=O)CNC(=O)[C@H](CC(=O)N[C@H]1CCOC1=O)NC(=O)CCCCCN1C(=O)C=CC1=O)CC3 [Example 13] ({Hexanoyl(6-maleimido)}-D(hSer(lactone))GGFG[NHCH2OCH2CO]-Exatecan)
## Output 24%

## Input Report its Release rate (%) of drug from ADC with human liver Cathepsin B (Homo sapiens) as the test system: CC[C@@]1(OC(=O)OCc2ccc(NC(=O)[C@H](CCCNC(N)=O)NC(=O)[C@@H](NC(=O)[C@H](CC(=O)N[C@H]3CCOC3=O)NC(=O)CCOCCOCCOCCOCCNC(=O)[C@H](CNC(=O)CCP(=O)(O)O)N3C(=O)C=CC3=O)C(C)C)cc2)C(=O)OCc2c1cc1n(c2=O)Cc2c-1nc1cc(F)c(C)c3c1c2[C@@H](NC(=O)CO)CC3 [Example 11]
## Output 30%

## Input Give measured Release rate (%) of drug from ADC for CC[C@H](C)[C@@H]([C@@H](CC(=O)N1CCC[C@H]1[C@H](OC)[C@@H](C)C(=O)N[C@H](C)[C@@H](O)c1ccccc1)OC)N(C)C(=O)[C@@H](NC(=O)[C@H](C(C)C)N(C)C(=O)OCc1ccc(NC(=O)[C@H](CCCNC(N)=O)NC(=O)[C@@H](NC(=O)[C@H](CC(=O)N[C@H]2CCOC2=O)NC(=O)CCOCCOCCOCCOCCNC(=O)CCN2C(=O)C=CC2=O)C(C)C)cc1)C(C)C [Example 1] ({Propanoyl(3-maleimido)-PEG4}-D(hSer(lactone))V[Cit][PABC][NMeV]V[Dil][Dolaproine]-X1) (human liver Cathepsin B (Homo sapiens)).
## Output 71%

## Input With human liver Cathepsin B (Homo sapiens) as the test system, provide measured Release rate (%) of drug from ADC for this molecule: CC[C@@]1(O)C(=O)OCc2c1cc1n(c2=O)Cc2c-1nc1cc(F)c(C)c3c1c2[C@@H](NC(=O)COP(=O)(O)OCc1ccc(NC(=O)[C@H](CCCNC(N)=O)NC(=O)[C@@H](NC(=O)[C@H](CC(=O)N[C@H]2CCOC2=O)NC(=O)CCOCCOCCOCCOCCNC(=O)[C@H](CNC(=O)CCP(=O)(O)O)N2C(=O)C=CC2=O)C(C)C)cc1)CC3 [Example 12]
## Output 106%

## Input Retrieve Release rate (%) of drug from ADC on human liver Cathepsin B (Homo sapiens); query C=C1C[C@@H]2CC[C@@]34C[C@H]5O[C@H]6[C@@H](O3)[C@H]3O[C@H](CC[C@@H]3O[C@H]6[C@H]5O4)CC(=O)C[C@@H]3[C@@H](OC)[C@@H](C[C@H](O)CNC(=O)OCc4ccc(NC(=O)[C@H](CCCNC(N)=O)NC(=O)[C@@H](NC(=O)[C@H](CC(=O)N[C@H]5CCOC5=O)NC(=O)CCOCCOCCOP(=O)(O)OCCNC(=O)[C@H](CNC(=O)CCP(=O)(O)O)N5C(=O)C=CC5=O)C(C)C)cc4)O[C@H]3C[C@H]3O[C@@H](CC[C@@H]1O2)C[C@@H](C)C3=C [Example 17]
## Output 58%

###

Test system: human liver lysosome
Test: Metabolism test using human liver lysosomal fraction
Format: in vitro ADME
Details: 37° C., 24 hours, released drug, LC-MS/MS
Numbered stars: 1 amine (or outer) side, 2 acyl side, 3 side chain; on linkers, the order of the positions; unused ones are H or OH. Square brackets hold non-standard residues; d marks the D form. Peptide text beside a SMILES is read from it. * marks the point of attachment. Exatecan = CC[C@@]1(O)C(=O)OCc2c1cc1n(c2=O)Cc2c-1nc1cc(F)c(C)c3c1c2[C@@H](N*)CC3; βAla(2S-maleimido) = O=C1C=CC(=O)N1[C@@H](CN[*:1])C(=O)[*:2]; Dolaproine = CO[C@@H]([C@@H]1CCCN1)[C@@H](C)C(=O)O; Hexanoyl(6-maleimido) = O=C1C=CC(=O)N1CCCCCC(=O)*; Propanoyl(3-maleimido) = O=C1C=CC(=O)N1CCC(=O)*; Dil = CC[C@H](C)[C@H](NC)[C@@H](CC(=O)O)OC; PABC = O=C(OCc1ccc(N[*:1])cc1)[*:2]; NHCH2OCH2CO = O=C(COCN[*:1])[*:2]; X1 = C[C@@H](N*)[C@@H](O)c1ccccc1; hSer(lactone) = O=C1OCC[C@@H]1N*; Cit = NC(=O)NCCC[C@H](N)C(=O)O; PEG4 = NCCOCCOCCOCCOCCC(=O)O; NMeV = CN[C@H](C(=O)O)C(C)C; X2 = O=C1CC[C@@H](C(=O)*)O1; Sar = CNCC(=O)O
ENDPOINT: Release rate (%) of drug from ADC
Record the value in %, omitting the unit from your answer.

## Input Tell me Release rate (%) of drug from ADC reported for C=C1C[C@@H]2CC[C@@]34C[C@H]5O[C@H]6[C@@H](O3)[C@H]3O[C@H](CC[C@@H]3O[C@H]6[C@H]5O4)CC(=O)C[C@@H]3[C@@H](OC)[C@@H](C[C@H](O)CNC(=O)OCc4ccc(NC(=O)[C@H](CCCNC(N)=O)NC(=O)[C@@H](NC(=O)[C@H](CC(=O)N[C@H]5CCOC5=O)NC(=O)CN(C)CCNC(=O)CCOCCOCCOCCOCCNC(=O)[C@H](CNC(=O)CCP(=O)(O)O)N5C(=O)C=CC5=O)C(C)C)cc4)O[C@H]3C[C@H]3O[C@@H](CC[C@@H]1O2)C[C@@H](C)C3=C
## Output 72

## Input Supply Release rate (%) of drug from ADC value. Item: CCN(CC(=O)N[C@H]1CCc2c(C)c(F)cc3nc4c(c1c23)Cn1c-4cc2c(c1=O)COC(=O)[C@]2(O)CC)C(=O)OCc1ccc(NC(=O)[C@H](CCCNC(N)=O)NC(=O)[C@@H](NC(=O)[C@H](CC(=O)N[C@H]2CCOC2=O)NC(=O)CCOCCOCCOCCOCCNC(=O)[C@H](CNC(=O)CCP(=O)(O)O)N2C(=O)C=CC2=O)C(C)C)cc1
## Output 98

## Input Provide Release rate (%) of drug from ADC value for the following molecule: C=C1C[C@@H]2CC[C@@]34C[C@H]5O[C@H]6[C@@H](O3)[C@H]3O[C@H](CC[C@@H]3O[C@H]6[C@H]5O4)CC(=O)C[C@@H]3[C@@H](OC)[C@@H](C[C@H](O)CNC(=O)OCc4ccc(NC(=O)[C@H](CCCNC(N)=O)NC(=O)[C@@H](NC(=O)[C@H](CC(=O)N[C@H]5CCOC5=O)NC(=O)CCOCCOCCOP(=O)(O)OCCNC(=O)[C@H](CNC(=O)CCP(=O)(O)O)N5C(=O)C=CC5=O)C(C)C)cc4)O[C@H]3C[C@H]3O[C@@H](CC[C@@H]1O2)C[C@@H](C)C3=C
## Output 56

## Input Note Release rate (%) of drug from ADC for the molecule shown: CC[C@@]1(O)C(=O)OCc2c1cc1n(c2=O)Cc2c-1nc1cc(F)c(C)c3c1c2[C@@H](NC(=O)COP(=O)(O)OCc1ccc(NC(=O)[C@H](CCCNC(N)=O)NC(=O)[C@@H](NC(=O)[C@H](CC(=O)N[C@H]2CCOC2=O)NC(=O)CCOCCOCCOCCOCCNC(=O)[C@H](CNC(=O)CCP(=O)(O)O)N2C(=O)C=CC2=O)C(C)C)cc1)CC3
## Output 3.5

## Input Give the reported value of Release rate (%) of drug from ADC for this record: C=C1C[C@@H]2CC[C@@]34C[C@H]5O[C@H]6[C@@H](O3)[C@H]3O[C@H](CC[C@@H]3O[C@H]6[C@H]5O4)CC(=O)C[C@@H]3[C@@H](OC)[C@@H](C[C@H](O)CNC(=O)OCc4ccc(NC(=O)[C@H](CCCNC(N)=O)NC(=O)[C@@H](NC(=O)[C@H](CC(=O)N[C@H]5CCOC5=O)NC(=O)[C@H](CCCCN(C)C)NC(=O)CCOCCOCCOCCOCCNC(=O)[C@H](CNC(=O)CCP(=O)(O)O)N5C(=O)C=CC5=O)C(C)C)cc4)O[C@H]3C[C@H]3O[C@@H](CC[C@@H]1O2)C[C@@H](C)C3=C
## Output 75

## Input Tell me its Release rate (%) of drug from ADC given CC[C@@]1(O)C(=O)OCc2c1cc1n(c2=O)Cc2c-1nc1cc(F)c(C)c3c1c2[C@@H](NC(=O)COCNC(=O)CNC(=O)[C@H](Cc1ccccc1)NC(=O)CNC(=O)CNC(=O)[C@H](CC(=O)N[C@H]1CCOC1=O)NC(=O)CCCCCN1C(=O)C=CC1=O)CC3 [Example 13] ({Hexanoyl(6-maleimido)}-D(hSer(lactone))GGFG[NHCH2OCH2CO]-Exatecan) as the entry.
## Output 76

## Input Please report the measured Release rate (%) of drug from ADC for CC[C@@]1(O)C(=O)OCc2c1cc1n(c2=O)Cc2c-1nc1cc(F)c(C)c3c1c2[C@@H](NC(=O)CN(C)C(=O)OCc1ccc(NC(=O)[C@H](CCCNC(N)=O)NC(=O)[C@@H](NC(=O)[C@H](CC(=O)N[C@H]2CCOC2=O)NC(=O)CCOCCOCCOCCOCCNC(=O)CCN2C(=O)C=CC2=O)C(C)C)cc1)CC3 [Example 4] ({Propanoyl(3-maleimido)-PEG4}-D(hSer(lactone))V[Cit][PABC][Sar]-Exatecan)
## Output 76

## Input Supply measured Release rate (%) of drug from ADC of CC[C@H](C)[C@@H]([C@@H](CC(=O)N1CCC[C@H]1[C@H](OC)[C@@H](C)C(=O)N[C@H](C)[C@@H](O)c1ccccc1)OC)N(C)C(=O)[C@@H](NC(=O)[C@H](C(C)C)N(C)C(=O)OCc1ccc(NC(=O)[C@H](CCCNC(N)=O)NC(=O)[C@@H](NC(=O)[C@H](CC(=O)N[C@H]2CCOC2=O)NC(=O)CCOCCOCCOCCOCCNC(=O)[C@H](CNC(=O)[C@@H]2CCC(=O)O2)N2C(=O)C=CC2=O)C(C)C)cc1)C(C)C [Example 7] (X2-[βAla(2S-maleimido)][PEG4]D(hSer(lactone))V[Cit][PABC][NMeV]V[Dil][Dolaproine]-X1) in your reply.
## Output 86

## Input Identify measured Release rate (%) of drug from ADC associated with CC[C@H](C)[C@@H]([C@@H](CC(=O)N1CCC[C@H]1[C@H](OC)[C@@H](C)C(=O)N[C@H](C)[C@@H](O)c1ccccc1)OC)N(C)C(=O)[C@@H](NC(=O)[C@H](C(C)C)N(C)C(=O)OCc1ccc(NC(=O)[C@H](CCCNC(N)=O)NC(=O)[C@@H](NC(=O)[C@H](CC(=O)N[C@H]2CCOC2=O)NC(=O)CCOCCOCCOCCOCCNC(=O)CCN2C(=O)C=CC2=O)C(C)C)cc1)C(C)C [Example 1] ({Propanoyl(3-maleimido)-PEG4}-D(hSer(lactone))V[Cit][PABC][NMeV]V[Dil][Dolaproine]-X1)
## Output 68

## Input Given CC[C@@]1(OC(=O)OCc2ccc(NC(=O)[C@H](CCCNC(N)=O)NC(=O)[C@@H](NC(=O)[C@H](CC(=O)N[C@H]3CCOC3=O)NC(=O)CCOCCOCCOCCOCCNC(=O)[C@H](CNC(=O)CCP(=O)(O)O)N3C(=O)C=CC3=O)C(C)C)cc2)C(=O)OCc2c1cc1n(c2=O)Cc2c-1nc1cc(F)c(C)c3c1c2[C@@H](NC(C)=O)CC3 , respond with its Release rate (%) of drug from ADC.
## Output 61

## Input # return recorded Release rate (%) of drug from ADC for entry CC[C@@]1(OC(=O)OCc2ccc(NC(=O)[C@H](CCCNC(N)=O)NC(=O)[C@@H](NC(=O)[C@H](CC(=O)N[C@H]3CCOC3=O)NC(=O)CCOCCOCCOCCOCCNC(=O)[C@H](CNC(=O)CCP(=O)(O)O)N3C(=O)C=CC3=O)C(C)C)cc2)C(=O)OCc2c1cc1n(c2=O)Cc2c-1nc1cc(F)c(C)c3c1c2[C@@H](NC(=O)CO)CC3
## Output 64
